Just for reference, ChEMBL document CHEMBL3988442 is where these values come from.

- Target: AMP-activated protein kinase, AMPK (Homo sapiens) (UniProt P54646+O43741+P54619+Q9UGJ0+Q9Y478+Q13131+Q9UGI9)
- Test description: AMP-dependent Kinase enzyme assay. An in vitro enzyme assay that detects ADP turnover that is directly proportional to AMPK activity. This uses naive AMPK that is activated during the assay with MK-8722
- Assay type: functional
- Design: scale not given: direction of the effect not stated beside the values
- Assay context: 30 µM

[
  {
    "Compound": "CC(c1ccco1)N(C)Cc1nc2c(cnn2C)c(=O)[nH]1 (configuration not stated)",
    "Percent Effect / %": -5.7
  },
  {
    "Compound": "O=C(NCc1csc(Br)c1)c1ccc(=O)[nH]n1",
    "Percent Effect / %": 0.358
  },
  {
    "Compound": "CN(CCCc1cnn(C)c1)C(=O)C1COc2ccccc2C1 (configuration not stated)",
    "Percent Effect / %": 1.84
  },
  {
    "Compound": "CC(=O)NCC(=O)N1Cc2nccn2CC(CN2CCCC2)C1 (configuration not stated)",
    "Percent Effect / %": 1.1
  },
  {
    "Compound": "Cc1ccccc1S(=O)(=O)NC(=O)CSc1ccc2c(c1)OCCO2",
    "Percent Effect / %": -0.933
  },
  {
    "Compound": "CC(C)c1noc(CN(Cc2ccccc2F)C2CC2)n1",
    "Percent Effect / %": -0.613
  },
  {
    "Compound": "CCc1cccc(OCC(=O)N2CCCC(n3cncn3)C2)c1 (configuration not stated)",
    "Percent Effect / %": 1.85
  },
  {
    "Compound": "CSC(C)(C)CNC(=O)NC1CCSCC1",
    "Percent Effect / %": -5.19
  },
  {
    "Compound": "O=C(CCN1CCCC1C1CCCCC1)N1CCc2sccc2C1 (configuration not stated)",
    "Percent Effect / %": 11.2
  },
  {
    "Compound": "CCOc1cc(F)ccc1NS(=O)(=O)c1cc(C)c(C(=O)O)s1",
    "Percent Effect / %": -10.6
  },
  {
    "Compound": "Cc1ccc(CN2C[C@@H]3COC[C@H](C(=O)N4CCCCO4)[C@@H]3C2)o1",
    "Percent Effect / %": 7.57
  },
  {
    "Compound": "CCOc1ccc(CC(CNC(=O)c2occc2C)C(N)=O)cc1 (configuration not stated)",
    "Percent Effect / %": -18.6
  }
]

====

- Target: Tyrosyl-tRNA synthetase, putative (Trypanosoma cruzi (strain CL Brener)) (UniProt Q4DSP6)
- Sequence (Q4DSP6 as listed by the source): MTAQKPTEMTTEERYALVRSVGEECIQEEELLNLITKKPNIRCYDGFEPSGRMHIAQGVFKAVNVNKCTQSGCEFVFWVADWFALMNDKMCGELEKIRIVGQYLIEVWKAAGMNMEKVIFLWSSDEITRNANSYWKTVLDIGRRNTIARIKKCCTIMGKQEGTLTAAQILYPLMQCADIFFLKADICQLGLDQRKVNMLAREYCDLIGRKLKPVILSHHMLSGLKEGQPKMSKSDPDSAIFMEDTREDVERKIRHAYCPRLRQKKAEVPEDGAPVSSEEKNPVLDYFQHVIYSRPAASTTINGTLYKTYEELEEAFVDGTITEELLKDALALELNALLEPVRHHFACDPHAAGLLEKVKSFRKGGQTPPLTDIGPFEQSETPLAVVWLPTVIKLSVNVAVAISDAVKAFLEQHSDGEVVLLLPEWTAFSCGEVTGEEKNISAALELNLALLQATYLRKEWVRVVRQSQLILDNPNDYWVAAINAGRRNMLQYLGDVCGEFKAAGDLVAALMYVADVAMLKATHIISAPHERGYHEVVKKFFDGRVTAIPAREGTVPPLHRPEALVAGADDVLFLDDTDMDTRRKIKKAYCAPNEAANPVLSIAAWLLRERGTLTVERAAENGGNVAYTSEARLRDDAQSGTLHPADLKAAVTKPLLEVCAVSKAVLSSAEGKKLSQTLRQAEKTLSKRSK
- Test description: Trypanosoma cruzi tyrosyl tRNA synthetase (TcYRS) SOP
- Assay type: functional
- Set-up: scale not given: direction of the effect not stated beside the values
- Assay context: 30 µM

[
  {
    "Molecule": "CN(C)CC(=O)N1CCOC2(CCCN(c3ncccc3F)C2)C1 (stereo unspecified)",
    "Percent Effect (%)": 13.4
  },
  {
    "Molecule": "CC(C)(C)c1cnc(CN2CCCC2Cn2cccn2)o1 (stereo unspecified)",
    "Percent Effect (%)": 3.8
  },
  {
    "Molecule": "Cc1cc(C)c(CNC(=O)NCC(O)c2cccc(F)c2)c(=O)[nH]1 (stereo unspecified)",
    "Percent Effect (%)": 13.6
  },
  {
    "Molecule": "CC(C)Cc1cc(C(=O)N2CCCC(n3cncn3)C2)[nH]n1 (stereo unspecified)",
    "Percent Effect (%)": 12.7
  },
  {
    "Molecule": "O=C(C1CCOCC1)N1CCO[C@H]2[C@@H](OCc3ccncc3)CC[C@@H]21",
    "Percent Effect (%)": 13.4
  },
  {
    "Molecule": "Cn1cnnc1C1CCCN(C(=O)Cc2ccc3c(c2)OCCO3)C1 (stereo unspecified)",
    "Percent Effect (%)": 18.8
  }
]
